- assayed target: Recombinant Human TNF-α/TNFSF1A (human, UniProt P01375 77-233)
- Sequence (P01375 77-233 limits assumed): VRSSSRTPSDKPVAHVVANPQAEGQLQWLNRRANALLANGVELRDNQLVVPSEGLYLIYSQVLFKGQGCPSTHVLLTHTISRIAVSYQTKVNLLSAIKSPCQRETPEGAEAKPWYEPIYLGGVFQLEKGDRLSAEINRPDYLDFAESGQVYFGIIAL
- assay overview: cell-based or functional assay
Collected TNFα Neutralization Assay IC50 nM (L929 cells) values appear next to each entry.
reported endpoint: TNFα Neutralization Assay IC50 nM (L929 cells) (nM)

| binder | relation symbol | endpoint value |
| --- | --- | --- |
| AB375 (antibody, V domains shown, Full-length humanized antibody made in HEK 293-6E; also called hMAK199VH.2a/hMAK199VL.1) VH: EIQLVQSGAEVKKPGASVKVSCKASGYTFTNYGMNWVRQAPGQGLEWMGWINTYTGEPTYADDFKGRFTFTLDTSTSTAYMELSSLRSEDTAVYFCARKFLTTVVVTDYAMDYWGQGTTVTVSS VL: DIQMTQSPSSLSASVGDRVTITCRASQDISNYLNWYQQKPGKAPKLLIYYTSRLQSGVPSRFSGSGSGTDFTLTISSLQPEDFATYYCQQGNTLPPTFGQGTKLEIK | = | 11.4 |
| AB383 (antibody, V domains shown, Full-length humanized antibody made in HEK 293-6E; also called hMAK199VH.2b/hMAK199VL.1b) VH: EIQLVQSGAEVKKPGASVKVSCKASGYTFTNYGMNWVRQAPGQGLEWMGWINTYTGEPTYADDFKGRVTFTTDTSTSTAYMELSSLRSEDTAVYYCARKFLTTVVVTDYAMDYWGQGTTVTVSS VL: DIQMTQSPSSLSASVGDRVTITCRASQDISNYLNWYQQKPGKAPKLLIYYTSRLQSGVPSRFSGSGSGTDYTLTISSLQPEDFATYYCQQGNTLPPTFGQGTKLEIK | > | 20 |
| AB371 (antibody, V domains shown, Full-length humanized antibody made in HEK 293-6E; also called hMAK199VH.2/hMAK199VL.1b) VH: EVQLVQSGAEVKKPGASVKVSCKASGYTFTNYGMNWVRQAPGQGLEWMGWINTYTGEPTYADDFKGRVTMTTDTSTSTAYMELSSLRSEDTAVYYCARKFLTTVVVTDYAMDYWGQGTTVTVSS VL: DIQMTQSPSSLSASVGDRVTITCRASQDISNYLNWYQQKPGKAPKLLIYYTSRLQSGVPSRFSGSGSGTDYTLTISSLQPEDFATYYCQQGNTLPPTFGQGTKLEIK | > | 20 |
| AB368 (antibody, V domains shown, Full-length humanized antibody made in HEK 293-6E; also called hMAK199VH.1b/hMAK199VL.2b) VH: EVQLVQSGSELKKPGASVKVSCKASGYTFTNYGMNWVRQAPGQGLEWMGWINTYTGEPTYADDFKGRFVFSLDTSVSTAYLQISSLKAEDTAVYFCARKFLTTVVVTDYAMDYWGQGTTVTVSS VL: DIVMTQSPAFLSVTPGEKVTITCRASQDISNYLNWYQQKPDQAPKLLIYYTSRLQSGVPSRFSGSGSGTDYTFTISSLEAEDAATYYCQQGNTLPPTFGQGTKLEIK | = | 1.09 |
| AB363 (antibody, V domains shown, Full-length humanized antibody made in HEK 293-6E; also called hMAK199VH.1b/hMAK199VL.1) VH: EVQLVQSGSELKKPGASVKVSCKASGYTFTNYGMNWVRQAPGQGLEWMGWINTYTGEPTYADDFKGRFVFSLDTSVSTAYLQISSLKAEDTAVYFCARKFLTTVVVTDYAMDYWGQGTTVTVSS VL: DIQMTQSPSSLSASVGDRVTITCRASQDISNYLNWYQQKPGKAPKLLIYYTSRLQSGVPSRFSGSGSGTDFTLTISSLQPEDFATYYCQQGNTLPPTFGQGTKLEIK | = | 0.32 |
